compounds and their reported IC50
biological target: Caspase-3 (Homo sapiens); assay: Inhibition of human recombinant caspase 3
Sequence (P42574 29-175 limits assumed): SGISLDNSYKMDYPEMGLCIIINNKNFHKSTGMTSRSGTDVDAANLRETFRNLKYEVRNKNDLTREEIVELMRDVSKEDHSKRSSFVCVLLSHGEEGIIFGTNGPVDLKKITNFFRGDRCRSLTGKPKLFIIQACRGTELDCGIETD
Sequence (P42574 176-277 limits assumed): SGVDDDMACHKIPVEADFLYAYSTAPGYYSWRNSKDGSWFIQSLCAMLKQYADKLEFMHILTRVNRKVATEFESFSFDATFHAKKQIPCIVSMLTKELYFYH
value.kind: IC50

INSERT INTO measurements (smiles, observed) VALUES
  ('CCCN1C(=O)C(=O)c2cc(S(=O)(=O)N3CCC[C@H]3COC)ccc21', '5.3 nM'),
  ('COC[C@@H]1CCCN1S(=O)(=O)c1ccc2c(c1)C(=O)C(=O)N2CCCOCCCF', '> 100000 nM'),
  ('CCCN1C(=O)C(F)(F)c2cc(S(=O)(=O)N3CCC[C@H]3COC)ccc21', '> 100000 nM'),
  ('CCN1C(=O)C(=O)c2cc(S(=O)(=O)N3CCC[C@H]3COC)ccc21', '183 nM'),
  ('COC[C@@H]1CCCN1S(=O)(=O)c1ccc2c(c1)C(=O)C(=O)N2CCCCF', '41 nM'),
  ('COC[C@@H]1CCCN1S(=O)(=O)c1ccc2c(c1)C(=O)C(=O)N2CCCOCCCOS(C)(=O)=O', '> 100000 nM'),
  ('CCCCN1C(=O)C(=O)c2cc(S(=O)(=O)N3CCC[C@H]3COC)ccc21', '29 nM');
